FYI, the data here is from patent US20240199584A1.

- assayed_target: KRAS G12A (Homo sapiens, UniProt P01116, G12A)
- Sequence (P01116 1-188 isoform P01116-2 G12A): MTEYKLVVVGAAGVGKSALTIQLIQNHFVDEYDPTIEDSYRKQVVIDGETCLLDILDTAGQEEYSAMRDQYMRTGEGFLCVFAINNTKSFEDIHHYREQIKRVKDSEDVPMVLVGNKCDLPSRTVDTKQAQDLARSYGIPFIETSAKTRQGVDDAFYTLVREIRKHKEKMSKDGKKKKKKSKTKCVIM
- test_summary: Cellular KRAS:RAF Disruption Assay (NanoBRET), KRAS G12A
- cond: HEK293 T cells co-expressing RAF1 and KRAS G12A, 24 hours; read-out: RAS::RAF binding via NanoBRET IC50, KRAS G12A
quantity_name: IC50 (nM)
// units = nM; emit number, no label

// worked examples, IC50 included
>  <compound>
C#Cc1c(F)ccc2cc(O)cc(-c3ncc4c(N5CCOC6CC65)nc(OC[C@@]56CCCN5C[C@H](F)C6)nc4c3F)c12 (some centres unmarked) [Example 1-100]

>  <IC50 [nM]>
4.6

$$$$
>  <compound>
C#Cc1c(F)ccc2cc(O)cc(-c3ncc4c(N5CC6CCC(C5)N6C(=O)C5CC5)nc(OC[C@@]56CCCN5C[C@H](F)C6)nc4c3F)c12 [Example 6-2]

>  <IC50 [nM]>
29

$$$$
>  <compound>
C#Cc1c(F)ccc2cc(O)cc(-c3ncc4c(N5C6COCC5C6)nc(OC[C@@]56CCCN5C[C@H](F)C6)nc4c3F)c12 [Example 1-35]

>  <IC50 [nM]>
10

$$$$
>  <compound>
C#Cc1c(F)ccc2cc(O)cc(-c3ncc4c(N5CCOCC5)nc(OC[C@@]56CCCN5C[C@H](F)C6)nc4c3F)c12 [Example 1-1]

>  <IC50 [nM]>
16

$$$$
>  <compound>
C#Cc1c(F)ccc2cc(O)cc(-c3ccc4c(N5CC6CCC(C5)N6C(=O)C(F)(F)F)nc(OC[C@@]56CCCN5C[C@H](F)C6)nc4c3F)c12 [Example 7-3]

>  <IC50 [nM]>
144

$$$$
>  <compound>
C#Cc1c(F)ccc2cc(O)cc(-c3ncc4c(N5CCCOCC5)nc(OC[C@]56CCC[C@H]5N(C)CCC6)nc4c3F)c12 [Example 1-3]

>  <IC50 [nM]>
2

$$$$
>  <compound>
C#Cc1c(F)ccc2cc(O)cc(-c3ncc4c(N5CCOCC(C)(O)C5)nc(OC[C@]56CCC[C@H]5N(C)CCC6)nc4c3F)c12 (some centres unmarked) [Example 1-108]

>  <IC50 [nM]>
13.2

$$$$

Moving on to another compound below.
Input: Give its IC50 value. Item: C#Cc1c(F)ccc2cc(O)cc(-c3ncc4c(N5CCCC(C)(O)C5)nc(OC[C@]56CCC[C@H]5N(C)CCC6)nc4c3F)c12 (single isomer, unassigned) [Example 1-89]
Output: 4.8

* * *

- assayed_target: KRAS A146T (Homo sapiens, UniProt P01116, A146T)
- Sequence (P01116 1-188 isoform P01116-2 A146T): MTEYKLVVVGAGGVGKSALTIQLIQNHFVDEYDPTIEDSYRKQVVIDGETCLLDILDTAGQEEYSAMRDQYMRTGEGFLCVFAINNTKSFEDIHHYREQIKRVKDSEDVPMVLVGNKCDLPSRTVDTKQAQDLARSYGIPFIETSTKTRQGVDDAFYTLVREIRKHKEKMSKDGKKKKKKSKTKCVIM
- test_summary: Cellular KRAS:RAF Disruption Assay (NanoBRET), KRAS A146T
- cond: HEK293 T cells co-expressing RAF1 and KRAS A146T, 24 hours; read-out: RAS::RAF binding via NanoBRET IC50, KRAS A146T
pIC50: −log10 of the molar value.
Everything with pIC50 lower than 7 is F; everything else, including exactly 7, is T.

Input: I'd appreciate it if you could say whether C#Cc1c(F)ccc2cc(O)cc(-c3ccc4c(N5CCCOCC5)nc(OC[C@@]56CCCN5C[C@H](F)C6)nc4c3F)c12 [Example 2-2] has pIC50 at least equal to 7.
Output: T

Input: I'd appreciate it if you could say whether C#Cc1c(F)ccc2cc(O)cc(-c3ccc4c(N5CC6CCC(C5)N6C(=O)C(F)(F)F)nc(OC[C@]56CCC[C@H]5N(C)CCC6)nc4c3F)c12 [Example 7-7] has pIC50 at least equal to 7.
Output: F

Input: I'd appreciate it if you could say whether C#Cc1c(F)ccc2cc(O)cc(-c3ncc4c(N5CC6CCC(C5)N6C(=O)C5CC5)nc(OC[C@@]56CCCN5C[C@H](F)C6)nc4c3F)c12 [Example 6-2] has pIC50 at least equal to 7.
Output: F

Input: I'd appreciate it if you could say whether C#Cc1c(F)ccc2cc(O)cc(-c3ncc4c(N5C6COCC5C6)nc(OC[C@@]56CCCN5C[C@H](F)C6)nc4c3F)c12 [Example 1-35] has pIC50 at least equal to 7.
Output: T

Input: I'd appreciate it if you could say whether C#Cc1c(F)ccc2cc(O)cc(-c3ccc4c(N5CC6CCC(C5)N6C(=O)C(F)(F)F)nc(OC[C@@]56CCCN5C[C@H](F)C6)nc4c3F)c12 [Example 7-3] has pIC50 at least equal to 7.
Output: F

Input: I'd appreciate it if you could say whether C#Cc1c(F)ccc2cc(O)cc(-c3ncc4c(N5CCCOCC5)nc(OC[C@]56CCC[C@H]5N(C)CCC6)nc4c3F)c12 [Example 1-3] has pIC50 at least equal to 7.
Output: T

* * *

- assayed_target: KRAS G12D (Homo sapiens, UniProt P01116, G12D)
- Sequence (P01116 1-188 isoform P01116-2 G12D): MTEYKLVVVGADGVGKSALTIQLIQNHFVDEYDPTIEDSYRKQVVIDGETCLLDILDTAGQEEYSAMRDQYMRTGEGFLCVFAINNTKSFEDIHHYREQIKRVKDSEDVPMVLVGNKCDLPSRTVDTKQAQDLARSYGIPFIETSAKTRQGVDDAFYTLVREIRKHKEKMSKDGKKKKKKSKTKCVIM
- test_summary: biochemical
pIC50: −log10 of the molar value.
Everything with pIC50 lower than 6 is false (0); everything else, including exactly 6, is true (1).

Solved cases (8 shown):
>  <compound>
CN1CCC[C@@]2(COc3nc(N4CCC[C@@](C)(O)C4)c4cnc(-c5cn(C(F)F)c(=O)c6ccc(C(F)(F)F)cc56)c(F)c4n3)CCC[C@@H]12 [Example 10-8]

>  <assayed_target>
KRAS G12D (Homo sapiens, UniProt P01116, G12D)

>  <assigned_category>
false (0)

$$$$
>  <compound>
C#Cc1c(F)ccc2cc(O)cc(-c3ncc4c(N5CCCOCC5)nc(OC[C@]56CCC[C@H]5N(C)CCC6)nc4c3F)c12 [Example 1-3]

>  <assayed_target>
KRAS G12D (Homo sapiens, UniProt P01116, G12D)

>  <assigned_category>
true (1)

$$$$
>  <compound>
C#Cc1c(F)ccc2cc(O)cc(-c3ncc4c(N5CCOCC(CC#N)C5)nc(OC[C@]56CCC[C@H]5N(C)CCC6)nc4c3F)c12 (single isomer, unassigned) [Example 1-130]

>  <assayed_target>
KRAS G12D (Homo sapiens, UniProt P01116, G12D)

>  <assigned_category>
true (1)

$$$$
>  <compound>
C#Cc1c(F)ccc2cc(O)cc(-c3ccc4c(N5CC6CCC(C5)N6C(=O)C(F)(F)F)nc(OC[C@]56CCC[C@H]5N(C)CCC6)nc4c3F)c12 [Example 7-7]

>  <assayed_target>
KRAS G12D (Homo sapiens, UniProt P01116, G12D)

>  <assigned_category>
true (1)

$$$$
>  <compound>
C#Cc1c(F)ccc2cc(O)cc(-c3ccc4c(N5CCC(S(=O)(=O)N(C)C)CC5)nc(OC[C@@]56CCCN5C[C@H](F)C6)nc4c3F)c12 [Example 2-19]

>  <assayed_target>
KRAS G12D (Homo sapiens, UniProt P01116, G12D)

>  <assigned_category>
false (0)

$$$$
>  <compound>
C#Cc1c(F)ccc2cc(O)cc(-c3ccc4c(N5CC6C(C5)C6(C)C)nc(OC[C@@]56CCCN5C[C@H](F)C6)nc4c3F)c12 (stereo partly shown) [Example 2-11]

>  <assayed_target>
KRAS G12D (Homo sapiens, UniProt P01116, G12D)

>  <assigned_category>
false (0)

$$$$
>  <compound>
CN1CCC[C@@]2(COc3nc(N4CCC[C@@](C)(O)C4)c4cnc(-c5cn(C(F)F)c(=O)c6ccccc56)c(F)c4n3)CCC[C@@H]12 [Example 10-6]

>  <assayed_target>
KRAS G12D (Homo sapiens, UniProt P01116, G12D)

>  <assigned_category>
false (0)

$$$$
>  <compound>
C#Cc1c(F)ccc2cc(O)cc(-c3ccc4c(N5CC6CCC(C5)N6C(=O)C5CC(F)(F)C5)nc(OC[C@@]56CCCN5C[C@H](F)C6)nc4c3F)c12 [Example 7-4]

>  <assayed_target>
KRAS G12D (Homo sapiens, UniProt P01116, G12D)

>  <assigned_category>
false (0)

$$$$

Input: I'd appreciate it if you could say whether C#Cc1c(F)ccc2cc(O)cc(-c3ncc4c(N5CCCC(C#N)C5)nc(OC[C@@]56CCCN5C[C@H](F)C6)nc4c3F)c12 (single isomer, unassigned) [Example 1-23] has pIC50 at least equal to 6.
Output: true (1)

Input: I'd appreciate it if you could say whether C#Cc1c(F)ccc2cc(O)cc(-c3ncc4c(N5CCCOCC5)nc(OC[C@@]56C[C@@H](F)CN5CC5(CC5)C6)nc4c3F)c12 [Example 1-106] has pIC50 at least equal to 6.
Output: true (1)

* * *

- assayed_target: KRAS G12R (Homo sapiens, UniProt P01116, G12R)
- Sequence (P01116 1-188 isoform P01116-2 G12R): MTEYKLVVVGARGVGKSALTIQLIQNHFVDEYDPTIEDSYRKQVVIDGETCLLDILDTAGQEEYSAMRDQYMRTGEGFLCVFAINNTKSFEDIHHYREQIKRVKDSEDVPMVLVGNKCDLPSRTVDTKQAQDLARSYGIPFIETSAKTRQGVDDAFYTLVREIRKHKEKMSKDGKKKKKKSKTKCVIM
- test_summary: Cellular KRAS:RAF Disruption Assay (NanoBRET), KRAS G12R
- cond: HEK293 T cells co-expressing RAF1 and KRAS G12R, 24 hours; read-out: RAS::RAF binding via NanoBRET IC50, KRAS G12R
Measured IC50 accompanies every entry in the list below.
// units = µM; emit number, no label

>  <smiles_string>
C#Cc1c(F)ccc2cc(O)cc(-c3ncc4c(N5C6COCC5C6)nc(OC[C@@]56CCCN5C[C@H](F)C6)nc4c3F)c12

>  <display_unit>
µM

>  <reported_result>
4.23

$$$$
>  <smiles_string>
C#Cc1c(F)ccc2cc(O)cc(-c3ncc4c(N5CCOCC5)nc(OC[C@@]56CCCN5C[C@H](F)C6)nc4c3F)c12

>  <display_unit>
µM

>  <reported_result>
5.3

$$$$
>  <smiles_string>
C#Cc1c(F)ccc2cc(O)cc(-c3ccc4c(N5CC6CCC(C5)N6C(=O)C(F)(F)F)nc(OC[C@@]56CCCN5C[C@H](F)C6)nc4c3F)c12

>  <display_unit>
µM

>  <reported_result>
7.51

$$$$
>  <smiles_string>
C#Cc1c(F)ccc2cc(O)cc(-c3ccc4c(N5CCCOCC5)nc(OC[C@@]56CCCN5C[C@H](F)C6)nc4c3F)c12

>  <display_unit>
µM

>  <reported_result>
0.204

$$$$
>  <smiles_string>
C#Cc1c(F)ccc2cc(O)cc(-c3ccc4c(N5CCCOCC5)nc(OC[C@]56CCC[C@H]5N(C)CCC6)nc4c3F)c12

>  <display_unit>
µM

>  <reported_result>
1.07

$$$$

Moving on to another compound below.
Input: Give its IC50 value. Item: `C#Cc1c(F)ccc2cc(O)cc(-c3ncc4c(N5CCCOCC5)nc(OC[C@]56CCC[C@H]5N(C)CCC6)nc4c3F)c12`
Output: 0.133
